- Species: Homo sapiens
- assay-details: Selectivity for human adenosine A2A receptor over human adenosine A1 receptor
readout-type: Ratio Ki

CC(=O)Nc1cc(-c2cc(F)cc(O[C@@H]3CCN(C)C3)c2)nc(-n2nc(C)cc2C)n1    125
CC(=O)Nc1cc(-c2cccc(OCCN(C)C)c2)nc(-n2nc(C)cc2C)n1    134
CCN1CCC(Oc2cccc(-c3cc(NC(C)=O)nc(-n4nc(C)cc4C)n3)c2)C1 (stereo not drawn)    168
CC(=O)Nc1cc(-c2cc(O)cc(F)c2)nc(-n2nc(C)cc2C)n1    54
CC(=O)Nc1cc(-c2ccccc2)nc(-n2nc(C)cc2C)n1    7
CC(=O)Nc1cc(-c2cc(C)ccc2C)nc(-n2nc(C)cc2C)n1    46
CC(=O)Nc1cc(-c2cccc(CO[C@H]3CCN(C)C3)c2)nc(-n2nc(C)cc2C)n1    102
CC(=O)Nc1cc(-c2cccc(C#N)c2)nc(-n2nc(C)cc2C)n1    10
CC(=O)Nc1cc(-c2cccc(C(F)(F)F)c2)nc(-n2nc(C)cc2C)n1    40
CC(=O)Nc1cc(-c2cccc(CO[C@@H]3CCN(C)C3)c2)nc(-n2nc(C)cc2C)n1    99
COc1cccc(-c2cc(NC(C)=O)nc(-n3nc(C)cc3C)n2)c1    72
CC(=O)Nc1cc(-c2cccc(OC3CCN(C(C)C)C3)c2)nc(-n2nc(C)cc2C)n1 (stereo not drawn)    167
CC(=O)Nc1cc(-c2cccc(CC#N)c2)nc(-n2nc(C)cc2C)n1    50
CC(=O)Nc1cc(-c2cc(F)cc(F)c2)nc(-n2nc(C)cc2C)n1    64
CC(=O)Nc1cc(-c2cc(F)cc(OC3CCN(C)C3)c2)nc(-n2nc(C)cc2C)n1 (stereo not drawn)    135
CC(=O)Nc1cc(-c2cc(C)cc(C)c2)nc(-n2nc(C)cc2C)n1    43
COc1ccccc1-c1cc(NC(C)=O)nc(-n2nc(C)cc2C)n1    71
CC(=O)Nc1cc(-c2cccc(O[C@H]3CCN(C)C3)c2)nc(-n2nc(C)cc2C)n1    320

----------
- tested-on: Adenosine receptor A2a (Homo sapiens, UniProt P29274)
- Sequence (P29274 whole entry): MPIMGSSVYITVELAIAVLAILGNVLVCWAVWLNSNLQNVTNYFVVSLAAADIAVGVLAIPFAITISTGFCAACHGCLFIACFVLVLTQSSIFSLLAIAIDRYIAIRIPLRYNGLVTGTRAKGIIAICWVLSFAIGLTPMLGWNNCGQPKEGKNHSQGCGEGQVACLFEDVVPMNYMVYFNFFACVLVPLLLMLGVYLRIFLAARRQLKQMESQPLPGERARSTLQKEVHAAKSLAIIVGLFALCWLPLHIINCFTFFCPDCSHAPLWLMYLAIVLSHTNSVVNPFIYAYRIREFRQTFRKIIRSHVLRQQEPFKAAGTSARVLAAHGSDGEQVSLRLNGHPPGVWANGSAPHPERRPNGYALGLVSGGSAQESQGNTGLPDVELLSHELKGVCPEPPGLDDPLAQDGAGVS
readout-type: Ki (nM)

CC(=O)Nc1cc(-c2cc(O)cc(F)c2)nc(-n2nc(C)cc2C)n1    2
COc1ccc(-c2cc(NC(C)=O)nc(-n3nc(C)cc3C)n2)cc1    17
CCN1CCC(Oc2cccc(-c3cc(NC(C)=O)nc(-n4nc(C)cc4C)n3)c2)C1 (stereo not drawn)    3
CC(=O)Nc1cc(-c2cccc(OC3CCCN(C)C3)c2)nc(-n2nc(C)cc2C)n1 (stereo not drawn)    1
COc1c(F)cccc1-c1cc(NC(C)=O)nc(-n2nc(C)cc2C)n1    3
CC(=O)Nc1cc(-c2cc(F)cc(F)c2)nc(-n2nc(C)cc2C)n1    4
CC(=O)Nc1cc(-c2cccc(OC3CCN(C)CC3)c2)nc(-n2nc(C)cc2C)n1    6
CC(=O)Nc1cc(-c2cccc(O[C@@H]3CCN(C)C3)c2)nc(-n2nc(C)cc2C)n1    4
CC(=O)Nc1cc(-c2cccc(C(F)(F)F)c2)nc(-n2nc(C)cc2C)n1    2
CC(=O)Nc1cc(-c2cc(C)cc(C)c2)nc(-n2nc(C)cc2C)n1    8
CC(=O)Nc1cc(-c2cccc(O)c2)nc(-n2nc(C)cc2C)n1    2
CC(=O)Nc1cc(-c2cccc(C)c2)nc(-n2nc(C)cc2C)n1    7
CC(=O)Nc1cc(-c2cc(F)cc(O[C@H]3CCN(C)C3)c2)nc(-n2nc(C)cc2C)n1    1
CC(=O)Nc1cc(-c2cc(F)cc(OC3CCN(C)C3)c2)nc(-n2nc(C)cc2C)n1 (stereo not drawn)    1
CC(=O)Nc1cc(-c2cc(F)cc(O[C@@H]3CCN(C)C3)c2)nc(-n2nc(C)cc2C)n1    2
COc1cc(OC)cc(-c2cc(NC(C)=O)nc(-n3nc(C)cc3C)n2)c1    0.2
CC(=O)Nc1cc(-c2cccc(O[C@H]3CCN(C)C3)c2)nc(-n2nc(C)cc2C)n1    2
CC(=O)Nc1cc(-c2cc(C)ccc2C)nc(-n2nc(C)cc2C)n1    19
